I'd be grateful if you could share measured clearance for these entries.
Test protocol: Rat pharmacokinetic assay
Assay type: in vivo
Test settings: female, rat, plasma; SD rats, intravenous injection 25 mg/kg; read-out: CLz (clearance rate) (converted)
Method: 12 female SD rats, divided into four groups of three per group, were administrated G201 (dissolved in saline containing 5% N,N-dimethylacetamide and 5% cremophor ELL) and Elagolix Sodium (dissolved directly in saline) intravenously and by gavage at doses of 25 mg/kg and 50 mg/kg, respectively. Food was fasted overnight before administration and resumed 4 h after administration, with free access to water throughout the assay period. […]

What does the data say about its clearance? Entry: COc1cccc(-c2c(C)n(Cc3c(F)cccc3C(F)(F)F)c(=O)n(C[C@H](NCCCC(=O)[O-])c3ccccc3)c2=O)c1F.[Na+] [Elagolix Sodium, reference compound]
41.3 mL/min/kg

Given `COc1cccc(-c2c(C)n(Cc3c(F)cccc3C(F)(F)F)c(=O)n(C[C@H](NCCCC(=O)O)c3ccccc3F)c2=O)c1F` , state its recorded clearance.
27 mL/min/kg

Provenance of the data: patent US11884636B2
